System: hLiMTs
Experiment: Combined HCI (HCS) and cellular ATP 3D assay in hLiMTs
Conditions: Homo sapiens, read-out: HCS endpoint AC50
reported.property: AC50
The number alone won't do; follow it with the unit.

Use these answered entries as a reference point.
molecule	AC50
NCCCC(O)(P(=O)(O)O)P(=O)(O)O [alendronate]	15.6 µM
O=C(O)Cc1ccccc1Nc1c(Cl)cccc1Cl	293 µM
COc1ccccc1Oc1c(NS(=O)(=O)c2ccc(C(C)(C)C)cc2)nc(-c2ncccn2)nc1OCCO	179 µM

Give the measured AC50 of "Clc1ccccc1CN1CCc2sccc2C1" .
115 µM

Give the measured AC50 of "N[C@@H]1[C@H]2CN(c3nc4c(cc3F)c(=O)c(C(=O)O)cn4-c3ccc(F)cc3F)C[C@@H]12" .
38.9 µM

Give the measured AC50 of CC(C)C(=O)Nc1ccc([N+](=O)[O-])c(C(F)(F)F)c1 [flutamide, reference compound] .
43.5 µM

Give the measured AC50 of CC(=O)N1CCN(c2ccc(OCC3COC(Cn4ccnc4)(c4ccc(Cl)cc4Cl)O3)cc2)CC1 (stereo not shown) [ketoconazole, reference compound] .
12.4 µM

Each recorded value in this set is attributed to paper PMC7395068.
